- study.system: human TLR7 (Homo sapiens, UniProt Q9NYK1)
- Sequence (Q9NYK1 27-1049): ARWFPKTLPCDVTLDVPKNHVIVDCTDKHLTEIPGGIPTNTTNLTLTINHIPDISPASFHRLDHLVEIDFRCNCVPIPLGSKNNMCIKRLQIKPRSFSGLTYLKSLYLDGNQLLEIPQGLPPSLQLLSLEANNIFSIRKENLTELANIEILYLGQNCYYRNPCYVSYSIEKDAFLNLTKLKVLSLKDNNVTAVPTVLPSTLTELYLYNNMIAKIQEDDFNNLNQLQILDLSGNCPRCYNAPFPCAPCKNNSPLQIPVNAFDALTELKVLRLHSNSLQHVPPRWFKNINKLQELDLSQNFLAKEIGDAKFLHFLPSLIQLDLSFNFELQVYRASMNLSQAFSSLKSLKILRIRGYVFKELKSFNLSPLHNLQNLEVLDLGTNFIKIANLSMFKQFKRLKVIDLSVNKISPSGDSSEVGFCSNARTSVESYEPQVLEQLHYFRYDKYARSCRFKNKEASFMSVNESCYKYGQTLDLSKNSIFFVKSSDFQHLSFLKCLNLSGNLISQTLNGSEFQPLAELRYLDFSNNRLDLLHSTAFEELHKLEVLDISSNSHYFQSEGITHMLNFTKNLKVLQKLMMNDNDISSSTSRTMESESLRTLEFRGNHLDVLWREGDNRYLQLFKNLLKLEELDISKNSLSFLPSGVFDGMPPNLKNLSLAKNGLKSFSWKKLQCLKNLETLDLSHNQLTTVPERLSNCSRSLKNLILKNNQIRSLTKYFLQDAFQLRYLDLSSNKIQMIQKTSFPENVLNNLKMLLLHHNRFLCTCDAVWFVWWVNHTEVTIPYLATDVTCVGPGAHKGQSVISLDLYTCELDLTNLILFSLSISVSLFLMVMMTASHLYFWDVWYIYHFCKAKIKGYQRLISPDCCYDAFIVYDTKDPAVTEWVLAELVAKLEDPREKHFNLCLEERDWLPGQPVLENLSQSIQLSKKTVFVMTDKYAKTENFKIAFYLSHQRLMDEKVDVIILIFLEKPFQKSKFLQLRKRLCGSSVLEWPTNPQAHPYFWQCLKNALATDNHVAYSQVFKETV
- experimental.details: HEK293-Blue-hTLR-7 cells assay
- measurement.conditions: HEK293-Blue-hTLR7 cells, R848 stimulation, 20 hrs, SEAP reporter; read-out: HEK/hTLR7 IC50
measurement.label: IC50 (nM)

The following compounds have reported results that may help.
compound | units.label | IC50
C[C@@H]1CN(c2ccc(C#N)c3ncccc23)C[C@@H]2c3ccc(N4CCOCC(N)C4)cc3CN12 (stereo partly shown) | nM | 4
C[C@@H]1CN(c2ccc(C#N)c3ncccc23)C[C@@H]2c3ccc(N4CCNC[C@@](C)(O)C4)cc3CN12 [Example 55B] | nM | 16.1
C[C@@H]1CN(c2ccc(C#N)c3ncccc23)C[C@@H]2c3ccc(N4C[C@@H](N)[C@](C)(O)C4)cc3CN12 [Example 45] | nM | 4.5

(A) C[C@@H]1CN(c2ccc(C#N)c3ncccc23)C[C@@H]2c3cc(F)c(N4CC5CNCC(C4)O5)cc3CN12
(B) C[C@@H]1CN(c2ccc(C#N)c3ncccc23)C[C@@H]2c3ccc(N4CC5(CNC5)C4)cc3CN12
For the two items A and B , which reports the higher IC50 value? Please identify the chosen entry by its label.
A
(A: 6.9 nM, B: 3.3 nM)

Data provenance is patent US12157746B2.
